# assayExplanation: RP, GL Sciences Inertsil ODS-4, 150 × 2.1 mm, 3 µm, 40 °C, 0.3 mL/min, estimated dead time 1.1 min; A: water + 5 mM ammonium acetate; B: methanol + 5 mM ammonium acetate; gradient (min/%B) 0/5 30/95 50/95
# conditionParameters: stereoisomer not certain
Hi! Just check whether LC retention time is below 20 min. Below gives yes, equal or above gives no.

Please review the entries below; each comes with its answer.
molecule: Cc1ccc(C(=O)C(C)CN2CCCCC2)cc1 (stereo unspecified)
class: no
//
molecule: Cc1cc(=O)n(-c2ccccc2)n1C
class: yes
//
molecule: NC(=O)N1c2ccccc2C=Cc2ccccc21
class: no
//
molecule: COc1cc(OC)nc(NC(=O)NS(=O)(=O)Nc2ccccc2C(=O)C2CC2)n1
class: no
//
molecule: COc1cc(C)nc(-n2nc(C)cc2OC)n1
class: no
//
molecule: CCS(=O)(=O)c1nc2ccccn2c1S(=O)(=O)NC(=O)Nc1nc(OC)cc(OC)n1
class: yes

Lab note: LC retention time threshold 20 min. Does this molecule come in strictly under it? CC(C)NCC(O)COc1ccc(CCOCC2CC2)cc1 (stereo unspecified)
no

Lab note: LC retention time threshold 20 min. Does this molecule come in strictly under it? CCOc1ccc(NC(C)=O)cc1
yes

Lab note: LC retention time threshold 20 min. Does this molecule come in strictly under it? CC12C=CC(=O)C=C1CCC1C2C(O)CC2(C)C1CCC2(O)C(=O)CO (stereo unspecified)
no

Lab note: LC retention time threshold 20 min. Does this molecule come in strictly under it? CC(C)(C)NCC(O)c1ccc(O)c(CO)c1 (stereo unspecified)
yes

Source: the RepoRT retention time repository (doi:10.1007/s11356-017-9929-x)
